Data provenance is ChEMBL document CHEMBL1130041.

test: Partition coefficient (logP); type: physicochemical; conditions: octanol/water
Decision: logP beneath 5 gives met; logP meeting or exceeding 5 gives not met.

1) N#Cc1ccc(OCC2CCN(CCF)CC2)cc1 | met
2) Brc1cccc(OCC2CCN(CC3CC3)CC2)c1 | not met
3) FCCCN1CCC(COc2c(F)c(F)c(F)c(F)c2F)CC1 | met
4) N#Cc1ccc(OCC2CCN(C/C=C/I)CC2)cc1 | met
5) N#Cc1ccc(OCC2CCN(CCCF)CC2)cc1 | met
6) Brc1ccc(OCC2CCN(CC3CC3)CC2)cc1 | not met
7) N#Cc1ccccc1CN1CCC(COc2ccc(I)cc2)CC1 | met
8) OCCN1CCC(COc2ccc(I)cc2)CC1 | met
9) Ic1ccc(OCC2CCN(CC3CC3)CC2)cc1 | not met
10) O=[N+]([O-])c1ccc(OCC2CCN(Cc3ccc(F)cc3)CC2)cc1 | met
11) Fc1cccc(CN2CCC(COc3c(F)c(F)c(F)c(F)c3F)CC2)c1 | met
12) N#Cc1ccc(OCC2CCN(Cc3ccccc3I)CC2)cc1 | met

====

assay: In Vitro binding affinity for 5-hydroxytryptamine 2 receptor
pKi: −log10 of the molar value.
Assay Readout: pKi

1. FCCCN1CCC(COc2c(F)c(F)c(F)c(F)c2F)CC1 | < 5.00
2. Fc1c(F)c(F)c(CN2CCC(COc3c(F)c(F)c(F)c(F)c3F)CC2)c(F)c1F | < 5.00
3. O=[N+]([O-])c1ccc(OCC2CCN(Cc3ccc(F)cc3)CC2)cc1 | < 5.00
4. FCCCN1CCC(COc2ccc(Br)cc2)CC1 | < 5.00
5. N#Cc1ccc(OCC2CCN(CCCF)CC2)cc1 | < 5.00
6. N#Cc1cccc(CN2CCC(COc3ccc(I)cc3)CC2)c1 | < 6.00
7. N#Cc1ccccc1CN1CCC(COc2ccc(I)cc2)CC1 | < 6.00
8. Fc1cccc(CN2CCC(COc3c(F)c(F)c(F)c(F)c3F)CC2)c1 | < 5.00
9. N#Cc1ccc(OCC2CCN(CCF)CC2)cc1 | < 5.00

====

experiment: In Vitro binding affinity for 5-hydroxytryptamine 2 receptor
pKi: −log10 of the molar value.
Each item that follows carries a reported pKi.
Assay Readout: pKi

1. Fc1ccc(CN2CCC(COc3c(F)c(F)c(F)c(F)c3F)CC2)cc1 | < 5.00
2. N#Cc1ccc(OCC2CCN(Cc3ccccc3Br)CC2)cc1 | < 6.00
3. O=C(CC1CCN(CC2CC2)CC1)c1ccc(F)cc1 | 7.82
4. FCCN1CCC(COc2ccc(I)cc2)CC1 | < 5.00
5. N#Cc1ccc(OCC2CCN(Cc3ccc(F)cc3)CC2)cc1 | < 5.00
6. Brc1ccc(OCC2CCN(CC3CC3)CC2)cc1 | < 5.00

====

Entries and their measured pKi follow.
biological target: Sigma 2 receptor; assay: In vitro for binding affinity at sigma-2 receptor by measuring its ability to displace [3H]DTG from guinea pig membranes; parameters: species or system Cavia porcellus
pKi: −log10 of the molar value.
Assay Readout: pKi

1. Brc1ccc(OCC2CCN(CC3CC3)CC2)cc1 | 7.87
2. N#Cc1ccc(OCC2CCN(Cc3ccccc3Br)CC2)cc1 | 7.51
3. N#Cc1ccccc1CN1CCC(COc2ccc(I)cc2)CC1 | 6.85
4. Brc1cccc(OCC2CCN(CC3CC3)CC2)c1 | 8.00
5. FCCCN1CCC(COc2ccc(Br)cc2)CC1 | 7.88
6. Fc1ccc(CN2CCC(COc3c(F)c(F)c(F)c(F)c3F)CC2)cc1 | 8.37
7. FCCCN1CCC(COc2c(F)c(F)c(F)c(F)c2F)CC1 | 8.28
8. Fc1cccc(CN2CCC(COc3c(F)c(F)c(F)c(F)c3F)CC2)c1 | 7.60
9. Ic1ccc(OCC2CCN(CC3CC3)CC2)cc1 | 7.93
10. N#Cc1cccc(CN2CCC(COc3ccc(I)cc3)CC2)c1 | 7.16
11. N#Cc1ccc(OCC2CCN(Cc3ccccc3I)CC2)cc1 | 7.03
12. FCCN1CCC(COc2ccc(I)cc2)CC1 | 6.99
13. N#Cc1ccc(OCC2CCN(CCCF)CC2)cc1 | 6.84
14. N#Cc1ccc(OCC2CCN(CCF)CC2)cc1 | 6.44
15. OCCN1CCC(COc2ccc(I)cc2)CC1 | 6.86
16. N#Cc1ccc(OCC2CCN(Cc3ccc(F)cc3)CC2)cc1 | 8.28
